Let's look at some binders and their measured cAMP Rel EC50, nM (1% HSA).
- targetDesc: T1, human GIP receptor (human) (UniProt P48546)
- T1 sequence (looked up): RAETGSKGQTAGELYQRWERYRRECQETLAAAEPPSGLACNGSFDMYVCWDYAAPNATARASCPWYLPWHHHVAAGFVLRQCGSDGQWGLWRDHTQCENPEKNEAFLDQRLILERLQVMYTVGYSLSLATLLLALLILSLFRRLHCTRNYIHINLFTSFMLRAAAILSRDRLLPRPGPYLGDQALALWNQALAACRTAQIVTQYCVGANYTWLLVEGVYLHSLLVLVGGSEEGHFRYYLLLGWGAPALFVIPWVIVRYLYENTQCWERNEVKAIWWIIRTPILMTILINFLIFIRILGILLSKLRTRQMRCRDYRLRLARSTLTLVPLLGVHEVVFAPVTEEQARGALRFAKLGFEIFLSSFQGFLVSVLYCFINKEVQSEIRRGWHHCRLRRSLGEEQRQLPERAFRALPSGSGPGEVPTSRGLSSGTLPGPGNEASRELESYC
- assayNotes: cell-based or functional assay
Non-standard residues stand in square brackets, D forms with d. No end group written: not given here. αMePhe(2-F) = C[C@](N)(Cc1ccccc1F)C(=O)O; Aib = CC(C)(N)C(=O)O

[
  {
    "binder": "YXQGTFTSDXSQXLDXKAQXQFIEXLLAGGPSSGAPPPSGSEE (non-natural residues, acylated Lys, C-terminal amide; synthetic construct; SITE 2: note = 2-Aminoisobutyric Acid; SITE 10: note = 3-(4-Pyridyl)-L-alanine; SITE 13: note = alpha-methyl-leucine; SITE 16: note = L-ornithine; SITE 17: note = Lysine is chemically modified through conjugation of the epsilon-amino group of the Lysine side chain with (gamma-Gl)) [Example 998]",
    "units": "nM",
    "cAMP Rel EC50, nM (1% HSA)": 6.78
  },
  {
    "binder": "YXQGTFTSDFSXXLDKKAQXAFIEWLLEGGHSSGAPPPSGS (synthetic construct; SITE 2: note = 2-Aminoisobutyric Acid; SITE 12: note = L-ornithine; SITE 13: note = alpha-methyl-leucine; SITE 17: note = Lysine is chemically modified through conjugation of the epsilon-amino group of the Lysine side chain with (2-[2-(2-Amino-ethoxy)-ethoxy]-acetyl)-(gamma-Glu)) [Example 170]",
    "units": "nM",
    "cAMP Rel EC50, nM (1% HSA)": 43.5
  },
  {
    "binder": "YXQGTFTSDFSQXLDKKAQXAFIEYLIEXGESSGAPPPSGS (acylated; synthetic construct; SITE 2: note = 2-Aminoisobutyric Acid; SITE 13: note = alpha-methyl-leucine; SITE 17: note = Lysine is chemically modified through conjugation of the epsilon-amino group of the Lysine side chain with (2-[2-(2-Amino-ethoxy)-ethoxy]-acetyl)-(gamma-Glu)-CO-(CH2) 16-CO2H; SITE 20: n) [Example 232]",
    "units": "nM",
    "cAMP Rel EC50, nM (1% HSA)": 24.6
  },
  {
    "binder": "YXQGTFTSDXSXXLDXKAQXEFIEXLLAGGPSSGAPPPSGSEE (acylated lysine (γ-Glu)2 C18 diacid; non-natural residues; C-terminal amide; synthetic construct; SITE 2: note = 2-Aminoisobutyric Acid; SITE 10: note = 3-(4-Pyridyl)-L-alanine; SITE 12: note = L-ornithine; SITE 13: note = alpha-methyl-leucine; SITE 16: note = L-ornithine; SITE 17: note = Lysine is chemically modified through conjugation of the epsilon-amino group of the Lys) [Example 996]",
    "units": "nM",
    "cAMP Rel EC50, nM (1% HSA)": 11.2
  },
  {
    "binder": "YXQGTFTSDFSRXLDKKAQXAFIEYLIEGGESSGAPPPSGS (acylated; synthetic construct; SITE 2: note = 2-Aminoisobutyric Acid; SITE 13: note = alpha-methyl-leucine; SITE 17: note = Lysine is chemically modified through conjugation of the epsilon-amino group of the Lysine side chain with (2-[2-(2-Amino-ethoxy)-ethoxy]-acetyl)-(gamma-Glu)-CO-(CH2) 16-CO2H; SITE 20: n) [Example 220]",
    "units": "nM",
    "cAMP Rel EC50, nM (1% HSA)": 87.1
  },
  {
    "binder": "YXQGTXTSDXXIXLDXKAQXXFIEXLIEGGPSSGEPPPS (synthetic construct; SITE 2: note = 2-Aminoisobutyric Acid; SITE 6: note = alpha-methyl-2-fluoro-L-phenylalanine; SITE 10: note = 3-(4-Pyridyl)-L-alanine; SITE 11: note = alpha-methyl-L-serine; SITE 13: note = alpha-methyl-leucine; SITE 16: note = L-ornithine; SITE 17: note = Lysine is chemically mo) [Example 375]",
    "units": "nM",
    "cAMP Rel EC50, nM (1% HSA)": 1.78
  },
  {
    "binder": "YXQGTFTSDXSRXLDKKAQXAFIEXLIEGGPSSGAPPPSGSEE (Aib, 4Pal, αMeL, Me4Pal; acylated Lys; C-terminal amide; synthetic construct; SITE 2: note = 2-Aminoisobutyric Acid; SITE 10: note = 3-(4-Pyridyl)-L-alanine; SITE 13: note = alpha-methyl-leucine; SITE 17: note = Lysine is chemically modified through conjugation of the epsilon-amino group of the Lysine side chain with (gamma-Glu)2-CO-(CH2)16-CO2H; SITE 20:) [Example 959]",
    "units": "nM",
    "cAMP Rel EC50, nM (1% HSA)": 24.5
  },
  {
    "binder": "HXQGTXTSDYSILLDKKAQXAFIEYLEEGGPSSGAPPPS (not fully specified; synthetic construct; SITE 2: note = 2-Aminoisobutyric Acid; SITE 6: note = alpha-methyl-2-fluoro-L-phenylalanine; SITE 17: note = Lysine is chemically modified through conjugation of the epsilon-amino group of the Lysine side chain with (2-[2-(2-Amino-ethoxy)-ethoxy]-acetyl)-(gamma-Glu)-CO-(CH2) 16-) [Example 425]",
    "units": "nM",
    "cAMP Rel EC50, nM (1% HSA)": 46.9
  },
  {
    "binder": "YXQGTFTSDXSQXLDKKAQXAFIEXLIEGGPSSGAPPPSGS (Aib, 4Pal, Me4Pal, αMeL; lipidated Lys; C-terminal amide; synthetic construct; SITE 2: note = 2-Aminoisobutyric Acid; SITE 10: note = 3-(4-Pyridyl)-L-alanine; SITE 13: note = alpha-methyl-leucine; SITE 17: note = Lysine is chemically modified through conjugation of the epsilon-amino group of the Lysine side chain with (gamma-Glu)2-CO-(CH2)16-CO2H; SITE 20:) [Example 951]",
    "units": "nM",
    "cAMP Rel EC50, nM (1% HSA)": 18.2
  },
  {
    "binder": "YXQGTFTSDXSQXLDKKAQXAFIEYLLAGGPSSGAPPPSGSEE (AEEA-γGlu-C18 diacid on Lys; non-natural residues; amide; synthetic construct; SITE 2: note = 2-Aminoisobutyric Acid; SITE 10: note = 3-(4-Pyridyl)-L-alanine; SITE 13: note = alpha-methyl-leucine; SITE 17: note = Lysine is chemically modified through conjugation of the epsilon-amino group of the Lysine side chain with (2-[2-(2-Amino-ethoxy)-ethoxy]-acetyl)) [Example 1037]",
    "units": "nM",
    "cAMP Rel EC50, nM (1% HSA)": 13.7
  },
  {
    "binder": "YXQGTFTSDFSXXLDKKAQXAFIEYLIEXGPSSGAPPPSGS (synthetic construct; SITE 2: note = 2-Aminoisobutyric Acid; SITE 12: note = L-ornithine; SITE 13: note = alpha-methyl-leucine; SITE 17: note = Lysine is chemically modified through conjugation of the epsilon-amino group of the Lysine side chain with (2-[2-(2-Amino-ethoxy)-ethoxy]-acetyl)-(gamma-Glu)) [Example 796]",
    "units": "nM",
    "cAMP Rel EC50, nM (1% HSA)": 17.5
  },
  {
    "binder": "YXQGTFTSDXSXXLDXKAQXAFIEXLIEXGPSSGEPPPSGS (Aib, 4Pal, Orn, Me4Pal, lipidated Lys, C-terminal amide; synthetic construct; SITE 2: note = 2-Aminoisobutyric Acid; SITE 10: note = 3-(4-Pyridyl)-L-alanine; SITE 12: note = L-ornithine; SITE 13: note = alpha-methyl-leucine; SITE 16: note = L-ornithine; SITE 17: note = Lysine is chemically modified through conjugation of the epsilon-amino group of the Lys) [Example 991]",
    "units": "nM",
    "cAMP Rel EC50, nM (1% HSA)": 14.8
  },
  {
    "binder": "YXQGTFTSDXSXXLDKKAQXAFIEYLIAGGPSSGAPPPSGSEE (Lys acylated (γGlu)2-C18 diacid; non-natural residues; C-amide; synthetic construct; SITE 2: note = 2-Aminoisobutyric Acid; SITE 10: note = 3-(4-Pyridyl)-L-alanine; SITE 12: note = L-ornithine; SITE 13: note = alpha-methyl-leucine; SITE 17: note = Lysine is chemically modified through conjugation of the epsilon-amino group of the Lysine side chain with (gamma-Gl)) [Example 961]",
    "units": "nM",
    "cAMP Rel EC50, nM (1% HSA)": 13.6
  },
  {
    "binder": "YXQGTFTSDFSXXLDKKAQXAFIEYLLEXGPSSGEPPPSGT (synthetic construct; SITE 2: note = 2-Aminoisobutyric Acid; SITE 12: note = L-ornithine; SITE 13: note = alpha-methyl-leucine; SITE 17: note = Lysine is chemically modified through conjugation of the epsilon-amino group of the Lysine side chain with (2-[2-(2-Amino-ethoxy)-ethoxy]-acetyl)2-(gamma-Glu)) [Example 167]",
    "units": "nM",
    "cAMP Rel EC50, nM (1% HSA)": 24.7
  },
  {
    "binder": "Y[Aib]QGT[αMePhe(2-F)]TSDYSILLDAKAFIEYLEEGGPSSGAPPPSEG-NH2 (not fully specified (residue 17)) [Example 410]",
    "units": "nM",
    "cAMP Rel EC50, nM (1% HSA)": 49.3
  },
  {
    "binder": "YXQGTFTSDXSXXLDKKAQXAFIEYLIAGGPSSGEPPPSGE (non-natural residues (Aib, 4Pal, Orn, αMeL, Me4Pal); lipidated K; amide; synthetic construct; SITE 2: note = 2-Aminoisobutyric Acid; SITE 10: note = 3-(4-Pyridyl)-L-alanine; SITE 12: note = L-ornithine; SITE 13: note = alpha-methyl-leucine; SITE 17: note = Lysine is chemically modified through conjugation of the epsilon-amino group of the Lysine side chain with (gamma-Gl)) [Example 979]",
    "units": "nM",
    "cAMP Rel EC50, nM (1% HSA)": 19.2
  },
  {
    "binder": "YXQGTFTSDFSXXLDKKAQXAFIEWLLEGGHSSGAPPPSGE (synthetic construct; SITE 2: note = 2-Aminoisobutyric Acid; SITE 12: note = L-ornithine; SITE 13: note = alpha-methyl-leucine; SITE 17: note = Lysine is chemically modified through conjugation of the epsilon-amino group of the Lysine side chain with (2-[2-(2-Amino-ethoxy)-ethoxy]-acetyl)2-(gamma-Glu)) [Example 169]",
    "units": "nM",
    "cAMP Rel EC50, nM (1% HSA)": 21.5
  },
  {
    "binder": "YXQGTFTSDFSXXLDKKAQXAFIEYLLEAGPSSGAPPPSGX (acylated; synthetic construct; SITE 2: note = 2-Aminoisobutyric Acid; SITE 12: note = L-ornithine; SITE 13: note = alpha-methyl-leucine; SITE 17: note = Lysine is chemically modified through conjugation of the epsilon-amino group of the Lysine side chain with (2-[2-(2-Amino-ethoxy)-ethoxy]-acetyl)-(gamma-Glu)) [Example 211]",
    "units": "nM",
    "cAMP Rel EC50, nM (1% HSA)": 20.6
  },
  {
    "binder": "YXQGTFTSDFSXXLDKKAQXAFIEYLLEXGHSSGAPPPSGS (synthetic construct; SITE 2: note = 2-Aminoisobutyric Acid; SITE 12: note = L-ornithine; SITE 13: note = alpha-methyl-leucine; SITE 17: note = Lysine is chemically modified through conjugation of the epsilon-amino group of the Lysine side chain with (2-[2-(2-Amino-ethoxy)-ethoxy]-acetyl)2-(gamma-Glu)) [Example 181]",
    "units": "nM",
    "cAMP Rel EC50, nM (1% HSA)": 12.7
  },
  {
    "binder": "YXQGTFTSDFSQXLDXKAQXAFIEYLLEAGPSSGAPPPSGSEEE (non-natural residues, D-Ala, lipidated Lys, C-terminal amide; synthetic construct; SITE 2: note = 2-Aminoisobutyric Acid; SITE 13: note = alpha-methyl-leucine; SITE 16: note = L-ornithine; SITE 17: note = Lysine is chemically modified through conjugation of the epsilon-amino group of the Lysine side chain with (2-[2-(2-Amino-ethoxy)-ethoxy]-acetyl)-(gamma-Glu)) [Example 1038]",
    "units": "nM",
    "cAMP Rel EC50, nM (1% HSA)": 29.8
  }
]
